Recorded values, source patent US20260297095A1.

# target: YES1 kinase (Homo sapiens)
# assay: YES1 kinase inhibition, ADP Glo assay (Promega)
# Type: biochemical
# measurement parameters: compound 10 nM; read-out: YES1 enzyme, % inhibition, 10 nM
measured metric: inhibition at 0.01 µM (%)

Some solved cases for reference:
compound	inhibition at 0.01 µM / %
COc1cc(-c2cc(N3CCC(N(C)C)CC3)n3ncnc(N)c23)ccc1NC(=O)OC(C)(C)C	67
COCCN1CCN(c2cc(-c3ccc(NC(=O)OC(C)(C)C)c(OC)c3)c3c(N)ncnn23)CC1	28

1 = COc1cc(-c2cc(N[C@H]3CC[C@@H](N)CC3)n3ncnc(N)c23)ccc1NC(=O)OC(C)(C)C
2 = COc1cc(-c2cc(N3CCC(NC(C)=O)CC3)n3ncnc(N)c23)ccc1NC(=O)OC(C)(C)C
3 = COc1cc(-c2c(F)c(N3CCC(N(C)C)CC3)n3ncnc(N)c23)ccc1NC(=O)OC(C)(C)C
## Input Arrange items by their inhibition at 0.01 µM values in increasing order. Write the labels out in the order the request specifies.
## Output 2, 1, 3

----------
# target: YES1 kinase (Homo sapiens)
# assay: YES1 kinase inhibition, ADP Glo assay (Promega)
# Type: biochemical
# measurement parameters: compound 1 nM; read-out: YES1 enzyme, % inhibition, 1 nM
measured metric: inhibition at 0.001 µM (%)

Some solved cases for reference:
molecule	units symbol	inhibition at 0.001 µM
COc1cc(-c2cc(N[C@H]3CC[C@H](N)C3)n3ncnc(N)c23)ccc1NC(=O)OC(C)(C)C [Example 116]	%	30
COc1cc(-c2cc(N3CCC(CCN)CC3)n3ncnc(N)c23)ccc1NC(=O)OC(C)(C)C [Example 107]	%	38
COc1cc(-c2c(C)c(N3CCC(N)CC3)n3ncnc(N)c23)ccc1NC(=O)OC(C)(C)C [Example 74]	%	43
COc1cc(-c2cc(N3CCC(C(C)(C)N)CC3)n3ncnc(N)c23)ccc1NC(=O)OC(C)(C)C [Example 106]	%	37

1 = COc1cc(-c2cc(N[C@H]3C[C@H](N)C3)n3ncnc(N)c23)ccc1NC(=O)OC(C)(C)C [Example 119]
2 = CNCCC1CCN(c2cc(-c3ccc(NC(=O)OC(C)(C)C)c(OC)c3)c3c(N)ncnn23)CC1 [Example 108]
3 = COc1cc(-c2cc(N3CCC(CO)CC3)n3ncnc(N)c23)ccc1NC(=O)OC(C)(C)C [Example 102]
## Input Arrange items by their inhibition at 0.001 µM values in increasing order. Write the labels out in the order the request specifies.
## Output 3, 1, 2
(3: 11%, 1: 24%, 2: 38%)

----------
# target: YES1 kinase (Homo sapiens, UniProt P07947)
# Sequence (P07947 whole entry): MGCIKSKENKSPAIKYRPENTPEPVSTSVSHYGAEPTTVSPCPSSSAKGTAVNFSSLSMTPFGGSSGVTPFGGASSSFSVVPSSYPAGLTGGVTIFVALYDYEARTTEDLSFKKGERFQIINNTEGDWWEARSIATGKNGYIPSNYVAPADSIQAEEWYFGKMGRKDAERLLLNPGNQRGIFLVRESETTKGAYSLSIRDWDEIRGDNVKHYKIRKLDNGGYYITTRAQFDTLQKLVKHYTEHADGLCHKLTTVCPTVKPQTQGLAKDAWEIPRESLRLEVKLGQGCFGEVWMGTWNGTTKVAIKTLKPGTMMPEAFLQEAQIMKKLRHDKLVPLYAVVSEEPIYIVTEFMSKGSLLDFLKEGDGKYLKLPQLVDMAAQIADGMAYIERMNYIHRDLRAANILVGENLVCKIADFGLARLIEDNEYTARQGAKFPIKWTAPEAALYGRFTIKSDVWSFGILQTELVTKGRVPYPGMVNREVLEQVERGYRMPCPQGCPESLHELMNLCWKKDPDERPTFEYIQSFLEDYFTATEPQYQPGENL
# assay: YES1 kinase inhibition, ADP Glo assay (Promega)
# Format: biochemical
# measurement parameters: compound 10 nM; read-out: YES1 enzyme, % inhibition, 10 nM
measured metric: inhibition at 0.01 µM (%)

I = COc1cc(-c2cc(N3CCC4(CC3)CC(=O)N(C)C4)n3ncnc(N)c23)ccc1NC(=O)OC(C)(C)C
II = COc1cc(-c2cc(N3CC(C)C(N)C(C)C3)n3ncnc(N)c23)ccc1NC(=O)OC(C)(C)C (stereo not drawn)
III = COc1cc(-c2cc(N3C[C@H]4CN(C)C[C@H]4C3)n3ncnc(N)c23)ccc1NC(=O)OC(C)(C)C
## Input Put the items in order so that reported inhibition at 0.01 µM rises from first to last. Write the labels out in the order the request specifies.
## Output II, III, I
(II: 21%, III: 37%, I: 59%)
